biological target: T1, cynomolgus monkey Protein S (cynomolgus monkey); experiment: BLI Octet; antibody on anti-human Fc probe; Protein S 7.81-500 nM; 4 mM CaCl2
T1 construct: also called cyno Protein S
So I've got a bunch of binders here, and I need their koff values.

QUERY: Requested field: koff. Item: Antibody 11 (antibody, V domains shown, Same variable regions as Antibody 23) VH: QVQLVQSGAEVKKPGASVKVSCKSSGHTFTGYYMHWVRQAPGQGLEWMGWINPNSGDTNYAQKFQGRVTMTRDTSISTAYMEMSRLRSDDTAVYYCARDSQILWFGELGYWGQGTLVTVSS VL: QAVVTQESALTTSPGETVTLTCRSSTGAVTASNYANWVQEKPDHLFTGLIGSTNNRAPGVPARFSGSLIGDKAALTITGAQTEDEAIYFCALWYSDHFVFGGGTKLTVL
RESULT: < 1e-07 s⁻¹

QUERY: Requested field: koff. Item: Antibody 25 (antibody, V domains shown, Same variable regions as Antibody 31) VH: QVQLQESGPGLVKPSETLSLTCTVSGGSISGNYWSWIRQPPGKGLEWIGYIYYSGSTNYNPSLKSRVTISVDTSKNQFSLKLSSVTAADTAVYYCARDLDYFTWGAYSDWYFDLWGRGTLVTVSS VL: DIQMTQSPSSLSASVGDRVTITCRASQSISTFLNWYQQKPGKAPKLLIYATSSLRSGVPSRFSGSGSGTDFTLTISSLQPEDFAIYYCQQSYSTPRTFGQGTQVEIK
RESULT: < 1e-07 s⁻¹
